system: Rattus norvegicus; assay: Evaluated in rat PCA (passive cutaneous anaphylaxis) test administered at 60 mg/kg ip and the inhibition of PCA due to inhibition of IgE mediated release was determined; format: functional; conditions: Rattus norvegicus, ip, route intraperitoneal

# SMILES_NOTATION, TARGET, inhibition in vivo at 60 mg/kg (%)
measured = [
    ("Nc1ccccc1C(=O)Nc1nn[nH]n1", "Rattus norvegicus", 59),
    ("O=c1c2ccccc2ncn1-c1cc[nH]n1", "Rattus norvegicus", 5),
    ("O=c1c2ccccc2nc(-c2ccccc2)n1-c1nn[nH]n1", "Rattus norvegicus", 27),
    ("Cc1ccc2ncn(-c3nn[nH]n3)c(=O)c2c1", "Rattus norvegicus", 100),
    ("O=c1c2cc(Cl)ccc2ncn1-c1nn[nH]n1", "Rattus norvegicus", 89),
    ("O=c1c2cc3c(cc2ncn1-c1nn[nH]n1)OCO3", "Rattus norvegicus", 90),
    ("O=c1c2ccccc2ncn1-n1cnnc1", "Rattus norvegicus", 0),
    ("O=c1c2ccccc2ncn1-c1nnn[nH]1", "Rattus norvegicus", 100),
    ("CCc1nc2ccccc2c(=O)n1-c1nn[nH]n1", "Rattus norvegicus", 41),
    ("Cc1nc2ccccc2c(=O)n1-c1nn[nH]n1", "Rattus norvegicus", 22),
]
